measurement parameters: in ethanol, 303.15 K
property measured: solubility (mole fraction)

>>> assay_value("O=C(OCC1c2ccccc2-c2ccccc21)ON1C(=O)CCC1=O")
0.000979

---

measurement parameters: in water, 298.15 K
property measured: solubility (mole fraction)

>>> assay_value("O=C(OCC1c2ccccc2-c2ccccc21)ON1C(=O)CCC1=O")
"7.38e-06"

---

measurement parameters: in DMSO, 328.15 K
property measured: solubility (mole fraction)

>>> assay_value("O=C(OCC1c2ccccc2-c2ccccc21)ON1C(=O)CCC1=O")
0.0257

---

measurement parameters: in water, 293.15 K
property measured: solubility (mole fraction)

>>> assay_value("O=C(OCC1c2ccccc2-c2ccccc21)ON1C(=O)CCC1=O")
"5.77e-06"

---

measurement parameters: in DMF, 308.15 K
property measured: solubility (mole fraction)

>>> assay_value("O=C(OCC1c2ccccc2-c2ccccc21)ON1C(=O)CCC1=O")
0.0177

---

measurement parameters: in DMF, 328.15 K
property measured: solubility (mole fraction)

>>> assay_value("O=C(OCC1c2ccccc2-c2ccccc21)ON1C(=O)CCC1=O")
0.0499

---

measurement parameters: in DMF, 283.15 K
property measured: solubility (mole fraction)

>>> assay_value("O=C(OCC1c2ccccc2-c2ccccc21)ON1C(=O)CCC1=O")
0.00369

---

measurement parameters: in ethylene glycol, 323.15 K
property measured: solubility (mole fraction)

>>> assay_value("O=C(OCC1c2ccccc2-c2ccccc21)ON1C(=O)CCC1=O")
0.00092

---

measurement parameters: in water, 323.15 K
property measured: solubility (mole fraction)

>>> assay_value("O=C(OCC1c2ccccc2-c2ccccc21)ON1C(=O)CCC1=O")
"2.28e-05"

---

measurement parameters: in ethanol, 318.15 K
property measured: solubility (mole fraction)

>>> assay_value("O=C(OCC1c2ccccc2-c2ccccc21)ON1C(=O)CCC1=O")
0.00155

---

measurement parameters: in water, 308.15 K
property measured: solubility (mole fraction)

>>> assay_value("O=C(OCC1c2ccccc2-c2ccccc21)ON1C(=O)CCC1=O")
"1.19e-05"

---

measurement parameters: in ethylene glycol, 308.15 K
property measured: solubility (mole fraction)

>>> assay_value("O=C(OCC1c2ccccc2-c2ccccc21)ON1C(=O)CCC1=O")
0.00049

---

measurement parameters: in ethanol, 328.15 K
property measured: solubility (mole fraction)

>>> assay_value("O=C(OCC1c2ccccc2-c2ccccc21)ON1C(=O)CCC1=O")
0.00205

---

measurement parameters: in ethylene glycol, 293.15 K
property measured: solubility (mole fraction)

>>> assay_value("O=C(OCC1c2ccccc2-c2ccccc21)ON1C(=O)CCC1=O")
0.000241

---

measurement parameters: in ethylene glycol, 303.15 K
property measured: solubility (mole fraction)

>>> assay_value("O=C(OCC1c2ccccc2-c2ccccc21)ON1C(=O)CCC1=O")
0.000396

---

measurement parameters: in DMF, 323.15 K
property measured: solubility (mole fraction)

>>> assay_value("O=C(OCC1c2ccccc2-c2ccccc21)ON1C(=O)CCC1=O")
0.0387

---

measurement parameters: in DMF, 293.15 K
property measured: solubility (mole fraction)

>>> assay_value("O=C(OCC1c2ccccc2-c2ccccc21)ON1C(=O)CCC1=O")
0.00719

---

measurement parameters: in ethylene glycol, 298.15 K
property measured: solubility (mole fraction)

>>> assay_value("O=C(OCC1c2ccccc2-c2ccccc21)ON1C(=O)CCC1=O")
0.000314
